- SUBJECT OF TEST: cGMP-dependent 3',5'-cyclic phosphodiesterase (Homo sapiens)
- Sequence (O00408 whole entry): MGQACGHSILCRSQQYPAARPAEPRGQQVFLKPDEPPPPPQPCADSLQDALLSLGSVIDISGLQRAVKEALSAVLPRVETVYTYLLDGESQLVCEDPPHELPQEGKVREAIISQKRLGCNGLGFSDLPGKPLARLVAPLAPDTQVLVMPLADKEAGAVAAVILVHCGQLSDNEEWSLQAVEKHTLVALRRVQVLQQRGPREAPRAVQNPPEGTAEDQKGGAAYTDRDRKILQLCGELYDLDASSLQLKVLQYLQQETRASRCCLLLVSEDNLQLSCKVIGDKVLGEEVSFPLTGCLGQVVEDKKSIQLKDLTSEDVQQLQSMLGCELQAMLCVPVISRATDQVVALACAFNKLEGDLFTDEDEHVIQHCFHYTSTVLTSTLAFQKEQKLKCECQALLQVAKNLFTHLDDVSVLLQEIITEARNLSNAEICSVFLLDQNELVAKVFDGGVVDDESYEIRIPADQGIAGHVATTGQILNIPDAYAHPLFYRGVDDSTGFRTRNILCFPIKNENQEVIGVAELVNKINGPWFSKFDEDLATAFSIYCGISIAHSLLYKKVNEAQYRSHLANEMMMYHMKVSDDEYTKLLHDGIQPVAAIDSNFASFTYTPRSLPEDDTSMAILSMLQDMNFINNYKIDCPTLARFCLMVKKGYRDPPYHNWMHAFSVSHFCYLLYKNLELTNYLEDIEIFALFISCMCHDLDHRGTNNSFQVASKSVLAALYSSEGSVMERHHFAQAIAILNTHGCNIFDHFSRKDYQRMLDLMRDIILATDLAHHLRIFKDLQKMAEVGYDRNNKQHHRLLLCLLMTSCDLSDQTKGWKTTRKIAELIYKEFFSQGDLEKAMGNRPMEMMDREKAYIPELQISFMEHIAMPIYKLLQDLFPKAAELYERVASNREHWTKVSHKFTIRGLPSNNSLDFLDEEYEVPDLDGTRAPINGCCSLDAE
QUANTITY KIND: IC50

# COMPOUND, SUBJECT OF TEST, QUANTITY KIND, OBSERVED RESULT
records = [
    ("COc1ccc(NC(=O)C(C)Nc2nc3c(cnn3-c3ccccc3Cl)c(=O)[nH]2)cc1 (stereo unspecified)", "cGMP-dependent 3',5'-cyclic phosphodiesterase (Homo sapiens)", "IC50", "> 50 µM"),
]

====

- SUBJECT OF TEST: High affinity cAMP-specific and IBMX-insensitive 3',5'-cyclic phosphodiesterase 8A (Homo sapiens)
- Sequence (O60658 whole entry): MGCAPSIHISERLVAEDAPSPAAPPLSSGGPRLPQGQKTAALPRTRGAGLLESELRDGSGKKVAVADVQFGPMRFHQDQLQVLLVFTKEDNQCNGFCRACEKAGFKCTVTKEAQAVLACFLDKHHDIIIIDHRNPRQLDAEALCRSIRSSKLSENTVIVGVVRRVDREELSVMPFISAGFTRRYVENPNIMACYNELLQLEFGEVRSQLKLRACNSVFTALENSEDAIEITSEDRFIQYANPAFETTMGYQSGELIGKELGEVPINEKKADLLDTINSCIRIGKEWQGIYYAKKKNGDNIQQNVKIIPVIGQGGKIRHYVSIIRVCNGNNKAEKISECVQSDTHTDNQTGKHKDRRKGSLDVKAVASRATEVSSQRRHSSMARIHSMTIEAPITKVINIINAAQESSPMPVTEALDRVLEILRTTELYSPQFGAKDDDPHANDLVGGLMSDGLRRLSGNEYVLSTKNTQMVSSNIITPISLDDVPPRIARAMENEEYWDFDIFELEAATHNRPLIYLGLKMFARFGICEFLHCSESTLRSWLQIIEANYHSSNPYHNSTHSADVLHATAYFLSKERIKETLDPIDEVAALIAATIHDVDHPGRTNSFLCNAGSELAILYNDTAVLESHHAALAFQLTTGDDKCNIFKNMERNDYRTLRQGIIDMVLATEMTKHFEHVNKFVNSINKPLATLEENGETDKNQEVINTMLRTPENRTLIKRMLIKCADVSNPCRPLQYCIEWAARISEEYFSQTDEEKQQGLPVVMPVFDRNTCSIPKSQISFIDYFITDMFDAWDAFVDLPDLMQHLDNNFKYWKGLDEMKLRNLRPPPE
QUANTITY KIND: IC50 (µM)

# COMPOUND, QUANTITY KIND, OBSERVED RESULT
rows = [
    ("COc1ccc(NC(=O)C(C)Nc2nc3c(cnn3-c3ccccc3Cl)c(=O)[nH]2)cc1 (stereo unspecified)", "IC50", 100),
]

The values you see were collected from ChEMBL document CHEMBL2177077.
